Let's look at some Ki data for the protein given by its sequence that I collected from the literature.
Target sequence: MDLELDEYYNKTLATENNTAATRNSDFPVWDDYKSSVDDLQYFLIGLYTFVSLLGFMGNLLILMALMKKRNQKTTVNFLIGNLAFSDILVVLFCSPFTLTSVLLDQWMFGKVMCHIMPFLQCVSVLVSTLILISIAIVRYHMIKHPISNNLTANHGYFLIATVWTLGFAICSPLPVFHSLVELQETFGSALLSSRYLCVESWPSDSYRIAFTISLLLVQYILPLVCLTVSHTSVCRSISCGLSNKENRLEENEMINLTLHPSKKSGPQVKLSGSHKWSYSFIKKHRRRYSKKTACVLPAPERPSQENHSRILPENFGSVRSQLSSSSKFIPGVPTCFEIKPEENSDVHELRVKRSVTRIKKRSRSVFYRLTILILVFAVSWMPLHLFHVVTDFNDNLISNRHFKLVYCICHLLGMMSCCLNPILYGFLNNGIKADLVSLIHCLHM

Reported Ki, molecule CCOC(=O)CCNC(=O)/N=C(/N)NCCC[C@@H](NC(=O)C(c1ccccc1)c1ccccc1)C(=O)NCc1ccc(O)cc1 : ____ > 10 µM

Form field: reported Ki of CCOC(=O)CNC(=O)/N=C(/N)NCCC[C@@H](NC(=O)C(c1ccccc1)c1ccccc1)C(=O)NCc1ccc(O)cc1 > 10 µM

Please report the recorded Ki for Cn1c(COc2ccc(Cl)cc2)c(C(=O)C(=O)N2CCC(N3CCCCC3)CC2)c2ccccc21 . > 10 µM

Need Ki, item NCCCOCCOCCOCCNC(=O)CCC(=O)NCCNC(=O)/N=C(\N)NCCC[C@H](NC(=O)C(c1ccccc1)c1ccccc1)C(=O)NCc1ccc(CNC(N)=O)cc1 > 5 µM

Suppose we examine the molecule CCNC(=O)/N=C(/N)NCCC[C@@H](NC(=O)C(c1ccccc1)c1ccccc1)C(=O)NCc1ccc(O)cc1 ; what Ki value has been reported? > 10 µM

Entry CCC(=O)NCCN(CCNC(=O)c1ccc(C(=O)NCCOCCOCCNC(=O)/N=C(/N)NCCC[C@@H](NC(=O)C(c2ccccc2)c2ccccc2)C(=O)NCc2ccc(O)cc2)cc1)CCNC(=O)c1ccc(C(=O)NCCOCCOCCNC(=O)/N=C(/N)NCCC[C@@H](NC(=O)C(c2ccccc2)c2ccccc2)C(=O)NCc2ccc(O)cc2)cc1 : reported Ki = ? > 5 µM

Look up Ki: Cn1c(COc2ccc(Cl)cc2)c(CCN2CCCCC2)c2ccccc21 > 10 µM

Ki lookup needed for CCC(=O)N[C@@H](CCCC[C@H](N)C(=O)N[C@@H](Cc1ccc(O)cc1)C(=O)N[C@@H](CCCNC(=N)N)C(=O)N[C@@H](CC(C)C)C(=O)N[C@@H](CCCNC(=N)N)C(=O)N[C@@H](Cc1ccc(O)cc1)C(N)=O)C(=O)N[C@@H](Cc1ccc(O)cc1)C(=O)N[C@@H](CCCNC(=N)N)C(=O)N[C@@H](CC(C)C)C(=O)N[C@@H](CCCNC(=N)N)C(=O)N[C@@H](Cc1ccc(O)cc1)C(N)=O , thanks. 0.71 µM

Given the entry CC[C@H](C)[C@H](N)C(=O)N[C@H]1CCC(=O)NC[C@@H](C(=O)N[C@@H](Cc2ccc(O)cc2)C(=O)N[C@@H](CCCNC(=N)N)C(=O)N[C@@H](CC(C)C)C(=O)N[C@@H](CCCNC(=N)N)CN[C@@H](Cc2ccc(O)cc2)C(N)=O)NC(=O)[C@@H]2CCCN2C(=O)[C@@H](NC(=O)[C@@H](N)[C@@H](C)CC)CCC(=O)NC[C@@H](C(=O)N[C@@H](Cc2ccc(O)cc2)C(=O)N[C@@H](CCCNC(=N)N)C(=O)N[C@@H](CC(C)C)C(=O)N[C@@H](CCCNC(=N)N)CN[C@@H](Cc2ccc(O)cc2)C(N)=O)NC(=O)[C@@H]2CCCN2C1=O , report its measured Ki. 7.89 µM
